B1: Cytoplasmic polyadenylation element-binding protein 2, residues 513 to 575; numbered along this chain, Q7Z5Q1 (parent)
chain: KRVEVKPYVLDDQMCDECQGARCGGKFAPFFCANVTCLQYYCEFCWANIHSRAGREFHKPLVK

# Variants of: B1
# Test Protocol: abundance fitness (aPCA) (normalised: wild type 0, dead -1); higher = more abundant; growth selection in yeast, the domain comes from the species named
# Experimental Context: Homo sapiens
Everything with abundance fitness lower than -0.1 is FALSE; everything else, including exactly -0.1, is TRUE.

- Construct Sequence: "KRVEVKPYVLDDQMCDECQGARCGGKFAPFFCDNVTCLQYYCEFCWANIHSRAGREFHKPLVK"
  Classification: "TRUE"
- Construct Sequence: "KRVEVKPYVLDDQMCDECQGARCGGKFAPFFCANVTTLQYYCEFCWANIHSRAGREFHKPLVK"
  Classification: "FALSE"
- Construct Sequence: "KRVEVKPYVLDDQMCDECQGNRCGGKFAPFFCANVTCLQYYCEFCWANIHSRAGREFHKPLVK"
  Classification: "TRUE"
- Construct Sequence: "KRVEVKPYVLDDQMCDECQGARCGGKFAPFFCANVCCLQYYCEFCWANIHSRAGREFHKPLVK"
  Classification: "FALSE"
- Construct Sequence: "KRVEVKPYVLDDQMCDECQGARCGGKFAPFFCANVTCLQYYCEFCHANIHSRAGREFHKPLVK"
  Classification: "FALSE"
- Construct Sequence: "KRVEVKPYVLDDQMCDECQGARCGMKFAPFFCANVTCLQYYCEFCWANIHSRAGREFHKPLVK"
  Classification: "FALSE"
- Construct Sequence: "KRVEVKPYVLCDQMCDECQGARCGGKFAPFFCANVTCLQYYCEFCWANIHSRAGREFHKPLVK"
  Classification: "FALSE"
- Construct Sequence: "KRVEVKPYVLDDQMCDECQGARCGGKFKPFFCANVTCLQYYCEFCWANIHSRAGREFHKPLVK"
  Classification: "TRUE"
- Construct Sequence: "KRVEVKPYVLDDQMCDECQGARCCGKFAPFFCANVTCLQYYCEFCWANIHSRAGREFHKPLVK"
  Classification: "FALSE"
- Construct Sequence: "KRVEVKPYGLDDQMCDECQGARCGGKFAPFFCANVTCLQYYCEFCWANIHSRAGREFHKPLVK"
  Classification: "TRUE"
- Construct Sequence: "KRVEVKPYVLDDQQCDECQGARCGGKFAPFFCANVTCLQYYCEFCWANIHSRAGREFHKPLVK"
  Classification: "TRUE"
- Construct Sequence: "QRVEVKPYVLDDQMCDECQGARCGGKFAPFFCANVTCLQYYCEFCWANIHSRAGREFHKPLVK"
  Classification: "FALSE"
- Construct Sequence: "KRVEVKPYVLDDQMCWECQGARCGGKFAPFFCANVTCLQYYCEFCWANIHSRAGREFHKPLVK"
  Classification: "TRUE"
- Construct Sequence: "KRVEVKPYVLDDQMCDECQAARCGGKFAPFFCANVTCLQYYCEFCWANIHSRAGREFHKPLVK"
  Classification: "FALSE"
- Construct Sequence: "KRVEVKPYVLDDQMCDECQGARCGGKFAPFFCANVTCLQYYCEFCWANIHSRAGRSFHKPLVK"
  Classification: "FALSE"
- Construct Sequence: "KRVEVKPYVLDDQMCDECQGARFGGKFAPFFCANVTCLQYYCEFCWANIHSRAGREFHKPLVK"
  Classification: "FALSE"
- Construct Sequence: "KRVEVKPYVLDDQMCDECQGARCGGKFAPFFCANVTCLQYYCEFCWANIHSRAGREFHKPAVK"
  Classification: "TRUE"
- Construct Sequence: "KRVEVKPYVLDDQMCDECQGARCGGKFAPFFCANVTCLQYYCEFCWANIHSRAGREFHKFLVK"
  Classification: "FALSE"
- Construct Sequence: "KRVEVKPYVLDDQMCDECQGPRCGGKFAPFFCANVTCLQYYCEFCWANIHSRAGREFHKPLVK"
  Classification: "FALSE"
- Construct Sequence: "KRVEVKPYVLDDQMCDECQGARCGGKFSPFFCANVTCLQYYCEFCWANIHSRAGREFHKPLVK"
  Classification: "FALSE"
- Construct Sequence: "KRVEVKPYVLDDQMCDECQGARCGGKFAPFFCANVTCLQYYCRFCWANIHSRAGREFHKPLVK"
  Classification: "FALSE"
- Construct Sequence: "KRVEVKPYVLDDQMCDECQGARCGGKFAPFFCANVTPLQYYCEFCWANIHSRAGREFHKPLVK"
  Classification: "FALSE"
- Construct Sequence: "KRVEVKPYVLDDQMCDECQGARCGGKFAPFFCANVTCLQYYCEFCWANIHSRALREFHKPLVK"
  Classification: "FALSE"
- Construct Sequence: "KRVEVKPYVLDDQMCDECQGARCGGKFAPFFCANVTCLIYYCEFCWANIHSRAGREFHKPLVK"
  Classification: "FALSE"
- Construct Sequence: "VRVEVKPYVLDDQMCDECQGARCGGKFAPFFCANVTCLQYYCEFCWANIHSRAGREFHKPLVK"
  Classification: "FALSE"
- Construct Sequence: "KRVEVKRYVLDDQMCDECQGARCGGKFAPFFCANVTCLQYYCEFCWANIHSRAGREFHKPLVK"
  Classification: "FALSE"
- Construct Sequence: "KRVEVKPYVLDDQMCDECQGARCGGKKAPFFCANVTCLQYYCEFCWANIHSRAGREFHKPLVK"
  Classification: "TRUE"
- Construct Sequence: "KRVEVKPYVLDDQMCDECQGARCGGKFAPFFCANVTCLQYYCEFCWANIHSRAGRVFHKPLVK"
  Classification: "FALSE"
- Construct Sequence: "KRVEVKPYVLDDQMCDECQGARCGGKFAPFFCANVTCLQYYCEFCWANGHSRAGREFHKPLVK"
  Classification: "FALSE"
- Construct Sequence: "KRVEYKPYVLDDQMCDECQGARCGGKFAPFFCANVTCLQYYCEFCWANIHSRAGREFHKPLVK"
  Classification: "FALSE"
- Construct Sequence: "KRVEVKPYVLDDQMCDECQGARCGGKFAPFFCANVTCLQYYLEFCWANIHSRAGREFHKPLVK"
  Classification: "FALSE"
- Construct Sequence: "KRVEVKTYVLDDQMCDECQGARCGGKFAPFFCANVTCLQYYCEFCWANIHSRAGREFHKPLVK"
  Classification: "TRUE"
- Construct Sequence: "KRVEVKPYVLDDQMCDECQGARCGGKFAPFFCANVTCLQYYCEFWWANIHSRAGREFHKPLVK"
  Classification: "FALSE"
- Construct Sequence: "KRVEVAPYVLDDQMCDECQGARCGGKFAPFFCANVTCLQYYCEFCWANIHSRAGREFHKPLVK"
  Classification: "TRUE"
- Construct Sequence: "KRVEVKPYVLDDQMCDECQGARCGGKFAPFFCANVTCLQIYCEFCWANIHSRAGREFHKPLVK"
  Classification: "FALSE"
- Construct Sequence: "KRVEVKPYVLDDQMCDECQGARMGGKFAPFFCANVTCLQYYCEFCWANIHSRAGREFHKPLVK"
  Classification: "FALSE"
- Construct Sequence: "KRVEVKPYVLDDQMCDECQGARCGGKFAPFFCANVTCLPYYCEFCWANIHSRAGREFHKPLVK"
  Classification: "FALSE"
- Construct Sequence: "KRVEVKPYVLDDQMCDECQGARCGGKFAPFFCANVTCLQYFCEFCWANIHSRAGREFHKPLVK"
  Classification: "TRUE"
- Construct Sequence: "KRVEVKPYVLDDQMCDECQGARCGPKFAPFFCANVTCLQYYCEFCWANIHSRAGREFHKPLVK"
  Classification: "FALSE"
- Construct Sequence: "KRVEVKPYVLDDQMCDECQGARCGGKFAPFFCANVTCLQYYCEFCWANIHSAAGREFHKPLVK"
  Classification: "TRUE"

These entries and their values trace back to the Human Domainome abundance scans (Beltran et al. 2025).
